Target: Prostaglandin G/H synthase 2 (Homo sapiens)
Sequence (P35354 whole entry): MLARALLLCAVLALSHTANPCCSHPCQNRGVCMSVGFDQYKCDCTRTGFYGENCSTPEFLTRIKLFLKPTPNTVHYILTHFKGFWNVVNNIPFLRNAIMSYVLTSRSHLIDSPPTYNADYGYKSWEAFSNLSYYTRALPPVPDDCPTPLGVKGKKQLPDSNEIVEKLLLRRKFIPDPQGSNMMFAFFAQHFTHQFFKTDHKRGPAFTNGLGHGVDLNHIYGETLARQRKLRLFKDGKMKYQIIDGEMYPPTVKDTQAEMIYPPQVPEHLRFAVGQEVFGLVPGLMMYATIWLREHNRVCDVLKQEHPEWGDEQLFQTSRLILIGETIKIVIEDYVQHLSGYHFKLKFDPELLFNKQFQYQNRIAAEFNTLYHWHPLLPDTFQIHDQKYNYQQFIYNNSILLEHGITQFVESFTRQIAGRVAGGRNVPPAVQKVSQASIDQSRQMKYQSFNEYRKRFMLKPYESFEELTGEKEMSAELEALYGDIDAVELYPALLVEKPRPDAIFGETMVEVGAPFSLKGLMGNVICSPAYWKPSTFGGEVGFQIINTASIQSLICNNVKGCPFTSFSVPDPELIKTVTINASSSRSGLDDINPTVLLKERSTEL
IC50 for Prostaglandin G/H synthase 2 (Homo sapiens) - collated from the literature.

Below: 4 compounds and their reported IC50.
{"smiles_input": "Cc1ccc(Nc2c(F)cccc2Cl)c(CC(=O)O)c1", "result": "> 10 µM"}
{"smiles_input": "Nc1ccccc1NC(=O)c1ccc(C(F)(F)F)cc1", "result": "> 100 µM"}
{"smiles_input": "CS(=O)(=O)c1ccc(-c2noc(N)c2-c2ccc(F)cc2)cc1", "result": "> 50 µM"}
{"smiles_input": "CS(=O)(=O)c1ccc(-c2[nH]ncc2-c2ccc(F)cc2)cc1", "result": "> 100 µM"}

API: the following record is the query input.
Query string: Can you share its IC50? I mean this compound: `CC(C)COc1c(Cl)cc2c(c1Cl)O[C@@H](C(F)(F)F)C(C(=O)O)=C2`
Result string: < 0.028 µM

----------
IC50 for Prostaglandin G/H synthase 2 (Homo sapiens, UniProt P35354) - collated from the literature.
recorded_endpoint: IC50 (nM)

Below: 2 compounds and their reported IC50.
{"smiles_input": "Cc1cccc(Nc2ccccc2C(=O)NCCc2c[nH]c3ccc(O)cc23)c1C", "IC50 / nM": 1400}
{"smiles_input": "COc1ccccc1-c1csc(Nc2ccc3c(c2)OCO3)n1", "IC50 / nM": 930}

a. CNS(=O)(=O)c1ccc(-c2oc(C)nc2C2CCCCC2)cc1
b. CS(=O)(=O)c1ccc(-c2sc(-c3cccs3)nc2-c2ccc(F)cc2)cc1
c. N#Cc1c(-c2ccccc2Cl)nc2c(/N=N/c3ccc(O)cc3)c(N)nn2c1N
Query string: Place the items in sequence of falling IC50. Response format: the labels, sorted as the prompt asks.
Result string: c, a, b

----------
pIC50: −log10 of the molar value.
pIC50 for Prostaglandin G/H synthase 2 (Homo sapiens, UniProt P35354) - collated from the literature.

{"molecule": "CCCCCCC[S+]([O-])c1ccccc1OC(C)=O (stereo not drawn)", "pIC50": "< 4.40"}

Query string: Can you share its pIC50? I mean this molecule: `CS(=O)(=O)c1ccc(-c2c(-c3ccc(F)cc3)csc2Br)cc1`
Result string: < 4.00

Query string: Also check `C=Cc1onc(-c2ccc(OC)cc2)c1-c1ccc(OC)cc1`
Result string: < 4.30

Query string: Also check `CCCCC#CCOc1ccccc1OC(C)=O`
Result string: < 4.40

Query string: Also check `COc1ccc(-c2c(-c3ccc(F)cc3)noc2CC(=O)O)cc1`
Result string: < 4.30

Query string: Also check `CC(=O)O[C@@H]1[C@@H](C)[C@@]2(O)[C@@H](C=C(CO)C[C@]3(O)C(=O)C(C)=C[C@@H]23)[C@@H]2C(C)(C)[C@]12OC(=O)C(C)C`
Result string: < 4.30

Query string: Also check `O=C(NCCc1c[nH]c2ccccc12)c1ccccc1O`
Result string: < 4.40

Query string: Also check `CC(C)Oc1ccc(-c2cccc(/C(=C\c3ccc(S(C)(=O)=O)cc3)C(=O)O)c2)cc1`
Result string: < 4.00
